assay: Half life in mouse; type: ADME, organism-based; conditions: in vivo
measure-name: half-life (min)
Record the value in min, omitting the unit from your answer.

Returns the measured half-life for the input molecule. Input: `Cc1ccc2c(=O)[nH]c(-c3ccc(C(C)(C)O)cc3)cn12`
58.6

====

experiment: Oral bioavailability in mouse; format: ADME, organism-based; details: in vivo
measure-name: bioavailability (%)
Only the number, expressed in %, is required.

Quick one: bioavailability for `Cc1ccc2c(=O)[nH]c(-c3ccc(C(C)(C)O)cc3)cn12` ?
77

====

assay: Modulation of Wnt/beta-catenin signaling pathway in human DLD-1 cells assessed as induction of AXIN2 accumulation incubated for 24 hrs by ELISA; type: cell-based; conditions: DLD-1, 24 h
Overview of recorded EC50 for various molecules
Form entry: enter the amount, then its unit.

GET /values?readout=EC50&item= `Cc1csc2c(=O)[nH]c(-c3ccc(C(C)(C)O)cc3)nc12`
96 nM

For `Cc1cc2c(=O)[nH]c(-c3ccc(C(C)(C)O)cc3)cn2n1` , what is its reported EC50?
510 nM

I'd like to know its EC50. The molecule in question is `CC(C)(O)c1ccc(-c2cn3c(F)c(F)cc3c(=O)[nH]2)cc1`
159 nM

For the molecule `Cc1ccc2c(=O)[nH]c(-c3ccc(C(C)(C)O)cc3)nn12` , what EC50 is on record?
28 nM

So what's the measured EC50 for this one? `Cc1ccc2c(=O)[nH]c(-c3ccc([C@](C)(O)CO)cc3)cn12`
82 nM

GET /values?readout=EC50&item= `Cc1ncc2c(=O)[nH]c(-c3ccc(C(C)(C)O)cc3)cn12`
749 nM

Could you tell me which EC50 is on file for `CC(C)(O)c1ccc(-c2cn3cc(F)cc3c(=O)[nH]2)cc1` ?
147 nM

# get_value(readout='EC50', item= `CC(C)(O)c1ccc(-c2cn3c(CO)ccc3c(=O)[nH]2)cc1` )
580 nM

Can you look up the measured EC50 of `CC(C)(O)c1ccc(-c2cn3c(F)ccc3c(=O)[nH]2)cc1` for me?
113 nM

So what's the measured EC50 for this one? `Cc1cc2c(=O)[nH]c(-c3ccc(C(C)(C)O)cc3)nn2n1`
12000 nM

Given the molecule `CC(C)(O)c1ccc(-c2cn3cccc3c(=O)[nH]2)cc1` , what is its reported EC50?
120 nM

Item under review: `CC(C)(C)c1ccc(-c2cn3cncc3c(=O)[nH]2)cc1` . Reported EC50?
635 nM
